ASSAYED_TARGET: G protein-activated inward rectifier potassium channel 2 (Homo sapiens) + G protein-activated inward rectifier potassium channel 1 (Homo sapiens) (UniProt P48051+P48549)
Sequence (P48051 whole entry, looked up): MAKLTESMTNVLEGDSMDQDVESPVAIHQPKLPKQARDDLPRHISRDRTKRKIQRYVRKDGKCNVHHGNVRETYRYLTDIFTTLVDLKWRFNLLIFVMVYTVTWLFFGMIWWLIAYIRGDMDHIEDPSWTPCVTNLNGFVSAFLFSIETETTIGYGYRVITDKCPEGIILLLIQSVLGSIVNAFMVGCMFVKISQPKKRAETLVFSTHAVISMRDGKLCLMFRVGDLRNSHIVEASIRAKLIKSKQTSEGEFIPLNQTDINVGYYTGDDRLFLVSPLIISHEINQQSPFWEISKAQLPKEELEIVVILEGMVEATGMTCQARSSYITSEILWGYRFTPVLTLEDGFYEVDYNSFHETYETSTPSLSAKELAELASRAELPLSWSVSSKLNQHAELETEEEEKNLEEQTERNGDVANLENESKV
Sequence (P48549 whole entry, looked up): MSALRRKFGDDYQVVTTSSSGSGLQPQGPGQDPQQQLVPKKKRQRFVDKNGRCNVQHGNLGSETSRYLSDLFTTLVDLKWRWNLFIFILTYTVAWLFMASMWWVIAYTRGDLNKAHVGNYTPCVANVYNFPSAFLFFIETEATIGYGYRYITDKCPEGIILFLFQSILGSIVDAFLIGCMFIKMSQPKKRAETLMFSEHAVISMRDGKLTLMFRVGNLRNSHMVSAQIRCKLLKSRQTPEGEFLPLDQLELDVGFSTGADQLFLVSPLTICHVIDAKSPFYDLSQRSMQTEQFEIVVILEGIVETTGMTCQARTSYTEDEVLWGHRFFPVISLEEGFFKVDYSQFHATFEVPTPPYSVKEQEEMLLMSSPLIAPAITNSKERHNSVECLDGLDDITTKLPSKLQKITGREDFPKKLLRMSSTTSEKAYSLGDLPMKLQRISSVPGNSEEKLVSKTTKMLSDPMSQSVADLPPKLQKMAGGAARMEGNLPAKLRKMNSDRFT
ASSAY_REMARKS: activation of human GIRK potassium channels – cell-based, thallium flux, HEK-293, GIRK1/2, dose response (AID 623909)
EXPERIMENTAL_PARAMETERS: HEK-293 hGIRK1/2, thallium flux FluoZin-2 fluorescence
EXPERIMENTAL_ENDPOINT: pEC50
Just the number, please; pEC50 means minus log10 of the concentration in mol/L.

Prompt: Provide one value: measured pEC50 of `O=C(Nc1cccc(Cl)c1)Nc1nccs1`
Completion: 5.71

Prompt: # return recorded pEC50 for input `COc1ccc(Br)cc1CNC(=O)Nc1cccs1`
Completion: 5.76

Prompt: State, in one line, measured pEC50 of `CC(=O)c1sc(NC(=O)c2cc(-c3ccccc3)nn2-c2ccccc2)nc1C`
Completion: 6.05

Prompt: Give pEC50 for `Cc1ccc(NC(=O)COC(=O)/C=C/c2ccco2)cc1S(=O)(=O)N(C)C`
Completion: 4.52

Prompt: Quick one: give measured pEC50 for `CCCN(CC1CC1)C(=S)Nc1ccc(Oc2ccccc2)cc1`
Completion: 5.45

Prompt: Return pEC50 for the following compound: `O=C(Cc1ccccc1)N/N=C/c1cccn1-c1ccc([N+](=O)[O-])cc1`
Completion: 5.85

Prompt: Output pEC50 of `S=C(Nc1cccc(Cl)c1)Nc1ccccc1Oc1ccccc1`
Completion: 5.09

Prompt: Please report pEC50 for the following compound: CCc1ccc(CNCCNCC(C)O)cc1 (stereo unspecified)
Completion: 5.63

Prompt: Kindly indicate its recorded pEC50. Item: `O=C(Nc1ccccc1)Nc1nccs1`
Completion: 4.52

Prompt: Please look at this compound and report its pEC50: `Cc1ccc(NC(=O)Cc2ccccc2Cl)cc1S(=O)(=O)N(C)C`
Completion: 5.58

Prompt: Indicate its recorded pEC50; the compound in question is `CSc1cccc(NC(=O)CN(c2ccccc2)S(=O)(=O)N(C)C)c1`
Completion: 4.52

Prompt: Look up pEC50 of COc1c(Cl)cc(Cl)cc1CNCCNCC(C)O (stereo unspecified) and report it.
Completion: 6.30

Prompt: Indicate its recorded pEC50; the compound in question is `COc1ccc(C)cc1NC(=O)Nc1ccccc1`
Completion: 5.22

Prompt: Please give the documented pEC50 of `COc1ccccc1Nc1ccc(Nc2ccccc2OC)nn1`
Completion: 5.47

Prompt: Read the entry `COc1cccc(NC(=O)Cn2cc(C#N)c3ccccc32)c1` and write its reported pEC50.
Completion: 5.78

Prompt: Please give the documented pEC50 of `CCOCc1c(C(=O)OCC(=O)Nc2ccc(C)c(S(=O)(=O)N(C)C)c2)oc2ccccc12`
Completion: 4.52

Prompt: Please report pEC50 for the following compound: `COc1ccc(NC(=O)Nc2cc(C)ccc2OC)cc1`
Completion: 5.69

Prompt: Indicate its recorded pEC50; the compound in question is `Cc1ccc(CC(=O)N2CCN(c3cccc(C(F)(F)F)c3)CC2)cc1`
Completion: 5.29

Prompt: Indicate its recorded pEC50; the compound in question is `CCOc1ccc(OCCSc2nc3ccccc3[nH]2)cc1`
Completion: 5.78

Prompt: Give the measured pEC50 for `Cc1cc(C)n(-c2ccc(C(=O)OCC(=O)Nc3ccc(Cl)c(S(=O)(=O)N(C)C)c3)cc2)n1`
Completion: 5.05

Prompt: Identify measured pEC50 associated with `CC(C)=CCC(C)(C)CNC(=O)NC1CCCCC1`
Completion: 4.52

Prompt: Check the records and state pEC50 for `CCCSc1nnc(Nc2ccccc2C)s1`
Completion: 4.52

Prompt: Return value of pEC50 for input Cc1cccc(NC(=O)NC(C)CCc2ccccc2)c1 (stereo unspecified) , no commentary.
Completion: 4.52

Prompt: Tell me its pEC50 given `CCOC(=O)Cc1csc(NC(=O)Nc2ccccc2)n1` as the entry.
Completion: 5.13

Prompt: Name the recorded pEC50 of the item `CN(C)S(=O)(=O)c1cccc(NC(=O)Cc2ccc(Cl)cc2)c1` in your answer.
Completion: 5.01

Prompt: Recall and state the measured pEC50 for `O=C(NNC(=O)c1cccs1)Nc1cccc(Cl)c1` .
Completion: 4.95

Prompt: Give pEC50 for `CC(/C=N/NC(=O)c1c(Br)cnn1C)=C\c1ccccc1`
Completion: 5.45

Prompt: Give reported pEC50 value for `Cc1ccccc1OCC(=O)N/N=C/c1cccn1C`
Completion: 4.52

Prompt: Indicate the recorded pEC50 value for this compound: `CCCCc1ccc(NC(=S)Nc2cccnc2)cc1`
Completion: 5.05

Prompt: Quote pEC50 reported for CC1CC(C)CN(C(=S)Nc2ccc(SC(F)F)cc2)C1 (stereo unspecified) please.
Completion: 4.98

Prompt: Note down pEC50 recorded for `Cc1ccc(Cl)cc1NC(=S)NCc1cccn1C`
Completion: 4.79

Prompt: Output pEC50 of `C/C(CC(=O)NCC(C)C)=N\NC(=O)COc1cc(C)c(Br)cc1Br`
Completion: 4.77

Prompt: Using the record for `Cc1ccc(NC(=O)COC(=O)CCC(=O)c2ccc(Cl)cc2)cc1S(=O)(=O)N(C)C` , state its measured pEC50.
Completion: 4.52

Prompt: Supply reported pEC50 belonging to this compound: `COc1cccc(NC(=O)Nc2cccs2)c1`
Completion: 5.14

Prompt: Fill in pEC50 for record Cc1ccc(-c2nnn(CC(=O)NC3CC4CCC3C4)n2)cc1 (stereo unspecified)
Completion: 6.50

Prompt: Respond only with pEC50 recorded for `CCOc1ccccc1Nc1nnc(Cc2ccccc2Cl)c(=O)[nH]1`
Completion: 6.17

Prompt: Output pEC50 of `CCCn1c(C)cc(/C=C(\C#N)C(=O)OCC(=O)Nc2cccc(OC)c2)c1C`
Completion: 4.52

Prompt: For the compound C=C(C)C1CC=C(C)/C(=N/NC(=O)COc2cccc(C)c2)C1 (stereo unspecified) , give its reported pEC50.
Completion: 5.05

Prompt: Fill in reported pEC50 for this entry: CC1CCCN(Cc2cccc(Oc3ccccc3)c2)C1 (stereo unspecified)
Completion: 4.52

Prompt: State, in one line, measured pEC50 of `Cc1nn(CC(=O)Nc2ccc(Cl)c(S(=O)(=O)N(C)C)c2)c(C)c1[N+](=O)[O-]`
Completion: 4.52

Prompt: For the compound `O=C(Nc1ccc(Cl)cc1)Nc1nccs1` , report pEC50.
Completion: 5.44
